Measured EC50 of individual entries
System: Human immunodeficiency virus 1
Experiment: Antiviral activity against HIV1 harbouring T332S/V362I/prR41G mutant infected in human MT2 cells measured after 4 to 5 days by dual-luciferase reporter assay
Assay type: functional, organism-based
Conditions: Human immunodeficiency virus 1, MT2
Answer with the number, then the unit.

• C=C(C)[C@@H]1CC[C@]2(NCCN3CCC(S(C)(=O)=O)CC3)CC[C@]3(C)[C@H](CC[C@@H]4[C@@]5(C)CC=C(C6=CCC(CCCOC)(C(=O)O)CC6)C(C)(C)[C@@H]5CC[C@]43C)[C@@H]12 (some centres not stated) = 11.1 nM

Turning now to a further molecule:
I have this molecule here, C=C(C)[C@@H]1CC[C@]2(NCCN3CCC(S(C)(=O)=O)CC3)CC[C@]3(C)[C@H](CC[C@@H]4[C@@]5(C)CC=C(C6=CC[C@@](CF)(C(=O)O)CC6)C(C)(C)[C@@H]5CC[C@]43C)[C@@H]12 , and I need its recorded EC50.
8 nM

----------
Tested on: Human immunodeficiency virus 1
Assay: Antiviral activity against HIV1 harbouring T332S/V362I/prR41G mutant infected in human MT2 cells measured after 4 to 5 days by dual-luciferase reporter assay
Format: functional, organism-based
Details: Human immunodeficiency virus 1, MT2
Item-by-item account of EC50
Numeric only. Scale: nM

The following molecules have reported results that may help.
- C=C(C)[C@@H]1CC[C@]2(NCCN3CCC(S(C)(=O)=O)CC3)CC[C@]3(C)[C@H](CC[C@@H]4[C@@]5(C)CC=C(C6=CC[C@@H](C(=O)O)CC6)C(C)(C)[C@@H]5CC[C@]43C)[C@@H]12: 18.8
- C=C(C)[C@@H]1CC[C@]2(NCCN3CCS(=O)(=O)CC3)CC[C@]3(C)[C@H](CC[C@@H]4[C@@]5(C)CC=C(C6=CCC(C(=O)O)(C(=O)O)CC6)C(C)(C)[C@@H]5CC[C@]43C)[C@@H]12: 292
- C=C(C)[C@@H]1CC[C@]2(NCCN3CCS(=O)(=O)CC3)CC[C@]3(C)[C@H](CC[C@@H]4[C@@]5(C)CC=C(C6=CC7C(C6)C7C(=O)O)C(C)(C)[C@@H]5CC[C@]43C)[C@@H]12 (some centres undefined): 299

Return EC50 measured with Human immunodeficiency virus 1 given this molecule: C=C(C)[C@@H]1CC[C@]2(NCCN3CCS(=O)(=O)CC3)CC[C@]3(C)[C@H](CC[C@@H]4[C@@]5(C)CC=C(C6=CCC(CF)(C(=O)O)CC6)C(C)(C)[C@@H]5CC[C@]43C)[C@@H]12 (single isomer, unassigned)
9.4

----------
Test system: Human immunodeficiency virus 1
Test: Antiviral activity against HIV1 harbouring T332S/V362I/prR41G mutant infected in human MT2 cells measured after 4 to 5 days by dual-luciferase reporter assay
Format: functional, organism-based
Details: Human immunodeficiency virus 1, MT2
assay-metric: EC50 (nM)
Write the number in nM without appending the unit.

• C=C(C)[C@@H]1CC[C@]2(NCCN3CCS(=O)(=O)CC3)CC[C@]3(C)[C@H](CC[C@@H]4[C@@]5(C)CC=C(C6=CCC(CC7CC7)(C(=O)O)CC6)C(C)(C)[C@@H]5CC[C@]43C)[C@@H]12 (stereo not given in full) = 54.1
• C=C(C)[C@@H]1CC[C@]2(NCCN3CCS(=O)(=O)CC3)CC[C@]3(C)[C@H](CC[C@@H]4[C@@]5(C)CC=C(C6=CCC(O)(C(=O)O)CC6)C(C)(C)[C@@H]5CC[C@]43C)[C@@H]12 (stereo not given in full) = 28.5
• C=C(C)[C@@H]1CC[C@]2(NCCN3CCS(=O)(=O)CC3)CC[C@]3(C)[C@H](CC[C@@H]4[C@@]5(C)CC=C(C6=CCC(C)(C(=O)O)CC6)C(C)(C)[C@@H]5CC[C@]43C)[C@@H]12 (stereo not given in full) = 4.8
• C=C(C)[C@@H]1CC[C@]2(NCCN3CCS(=O)(=O)CC3)CC[C@]3(C)[C@H](CC[C@@H]4[C@@]5(C)CC=C(C6=CCC(CC(=O)O)(C(=O)O)CC6)C(C)(C)[C@@H]5CC[C@]43C)[C@@H]12 (stereo not given in full) = 14.1

What measured EC50 goes with C=C(C)[C@@H]1CC[C@]2(NCCN3CCS(=O)(=O)CC3)CC[C@]3(C)[C@H](CC[C@@H]4[C@@]5(C)CC=C(C6=CC7(C6)CC(C(=O)O)C7)C(C)(C)[C@@H]5CC[C@]43C)[C@@H]12 (stereo not given in full) ?
363

----------
Molecular target: CYP2B6 (Homo sapiens, UniProt P20813)
Sequence (P20813 whole entry): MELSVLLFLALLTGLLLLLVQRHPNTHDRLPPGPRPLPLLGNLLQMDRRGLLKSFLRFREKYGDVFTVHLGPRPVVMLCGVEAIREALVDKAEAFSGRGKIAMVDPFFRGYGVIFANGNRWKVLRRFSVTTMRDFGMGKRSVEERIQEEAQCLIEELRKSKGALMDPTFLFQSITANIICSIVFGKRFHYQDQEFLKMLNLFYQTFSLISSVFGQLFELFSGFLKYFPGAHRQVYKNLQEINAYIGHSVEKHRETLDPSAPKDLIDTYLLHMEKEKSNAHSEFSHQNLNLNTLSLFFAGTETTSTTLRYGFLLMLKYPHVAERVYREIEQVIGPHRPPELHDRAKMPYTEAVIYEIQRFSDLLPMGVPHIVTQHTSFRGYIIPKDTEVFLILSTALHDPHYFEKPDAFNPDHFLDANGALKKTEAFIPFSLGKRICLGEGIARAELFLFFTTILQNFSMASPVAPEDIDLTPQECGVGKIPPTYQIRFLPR
Experiment: Induction of CYP2B6 in human hepatocyte
Format: ADME, cell-based
Conditions: hepatocytes
assay-metric: EC50

CYP2B6 (Homo sapiens, UniProt P20813) / EC50 / C=C(C)[C@@H]1CC[C@]2(NCCN3CCS(=O)(=O)CC3)CC[C@]3(C)[C@H](CC[C@@H]4[C@@]5(C)CC=C(C6=CC[C@@](CF)(C(=O)O)CC6)C(C)(C)[C@@H]5CC[C@]43C)[C@@H]12 : value?
> 5 µM

----------
Assay: Cmax in overnight fasted Sprague-Dawley rat at 5 mg/kg, po or 1 mg/kg, iv
Type: ADME, organism-based
Parameters: dose 5 mg/kg, route po
Conditions: in vivo
assay-metric: Cmax (nM)
Output spec: scalar in nM, unitless text.

Give its Cmax value. Item: C=C(C)[C@@H]1CC[C@]2(NCCN3CCS(=O)(=O)CC3)CC[C@]3(C)[C@H](CC[C@@H]4[C@@]5(C)CC=C(C6=CC[C@@](CF)(C(=O)O)CC6)C(C)(C)[C@@H]5CC[C@]43C)[C@@H]12 [FIPRAVIRIMAT]
900

----------
Assay: Cmax in overnight fasted mouse at 5 mg/kg, po or 1 mg/kg, iv
Assay type: ADME, organism-based
Set-up: dose 5 mg/kg, route po
Settings: in vivo
assay-metric: Cmax (nM)
Field: numeric (nM). Do not append units.

Quick one: Cmax for C=C(C)[C@@H]1CC[C@]2(NCCN3CCS(=O)(=O)CC3)CC[C@]3(C)[C@H](CC[C@@H]4[C@@]5(C)CC=C(C6=CC[C@@](CF)(C(=O)O)CC6)C(C)(C)[C@@H]5CC[C@]43C)[C@@H]12 [FIPRAVIRIMAT] ?
2700

----------
Test: Cmax in overnight fasted cynomolgus monkey at 2 mg/kg, po or 1 mg/kg, iv
Format: ADME, organism-based, Macaca fascicularis
Parameters: dose 2 mg/kg, route po
Details: in vivo
assay-metric: Cmax

- C=C(C)[C@@H]1CC[C@]2(NCCN3CCS(=O)(=O)CC3)CC[C@]3(C)[C@H](CC[C@@H]4[C@@]5(C)CC=C(C6=CC[C@@](CF)(C(=O)O)CC6)C(C)(C)[C@@H]5CC[C@]43C)[C@@H]12: 800 nM

Attention now turns to another entry.
Would you mind telling me what Cmax value was observed for C=C(C)[C@@H]1CC[C@]2(NCCN3CCS(=O)(=O)CC3)CC[C@]3(C)[C@H](CC[C@@H]4[C@@]5(C)CC=C(c6ccc(C(=O)O)cc6)C(C)(C)[C@@H]5CC[C@]43C)[C@@H]12 ?
100 nM

----------
Experiment: Half life in overnight fasted Sprague-Dawley rat at 1 mg/kg, iv
Format: ADME, organism-based
Conditions: in vivo
assay-metric: half-life (h)
Value expressed in h; do not type the unit.

What value of half-life has been recorded for this entry: C=C(C)[C@@H]1CC[C@]2(NCCN3CCS(=O)(=O)CC3)CC[C@]3(C)[C@H](CC[C@@H]4[C@@]5(C)CC=C(C6=CC[C@@](CF)(C(=O)O)CC6)C(C)(C)[C@@H]5CC[C@]43C)[C@@H]12 [FIPRAVIRIMAT]
4

----------
Experiment: Aqueous solubility of compound at pH 1 to 8
Format: physicochemical
assay-metric: solubility

What does the record list as solubility for C=C(C)[C@@H]1CC[C@]2(NCCN3CCS(=O)(=O)CC3)CC[C@]3(C)[C@H](CC[C@@H]4[C@@]5(C)CC=C(C6=CC[C@@](CF)(C(=O)O)CC6)C(C)(C)[C@@H]5CC[C@]43C)[C@@H]12.Cl.Cl ?
< 1 µg/mL
